B1: HDV Ribozyme (parent)
chain: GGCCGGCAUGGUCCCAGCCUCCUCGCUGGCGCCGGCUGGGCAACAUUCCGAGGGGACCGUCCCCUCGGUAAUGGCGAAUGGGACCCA

- Variants of: B1
- EXPERIMENT NOTES: self-cleavage, relative activity (ratio to wild type); higher = more cleavage; co-transcriptional
Answer criterion not met if self-cleavage is under 0.1, and criterion met if it is 0.1 or more.

Solved cases below.
[[record]]
biopolymer_sequence = "GGCCGGCAUGGUCCCAGCCUCCGCGCUGGCGCCGGCUGGGCAACAUUCCGAGGGGACCGUCCCCUCGGUAAUGCCGAAUGGGACCCA [U23G G74C]"
cat = "criterion met"

[[record]]
biopolymer_sequence = "GGCCGGCAUGGUCCCAGCCUCCUCGCUGGCGCCGGCCAGGCAACAUUCCGAGGGGACCGUCCCCUCGGUAAUGGCGAAUGGGACCCA [U37C G38A]"
cat = "criterion not met"


Please turn your attention to the following entry.
Test whether the variant GACCGGCAUGGUCCCAGCCUCCUCGCUGGCGCCGGCUGGGCAACAUUCCGAGGGGACUGUCCCCUCGGUAAUGGCGAAUGGGACCCA [G2A C58U] records self-cleavage of 0.1 or higher.
criterion met
